The values you see were collected from patent EP2970215B1.

In this section, each of the molecules is paired with its reported Ki.
STUDY TARGET: human GlyT1c transporter (Homo sapiens, UniProt P48067)
Construct: expressed in transfected cells; host or cells: CHO cells (recombinant; line hGlyT1c_5_CHO is named for the uptake assay)
ASSAY NAME: Radioligand binding assay using recombinant CHO cell membranes expressing human GlyT1
ASSAY CONDITIONS: radioligand binding to human GlyT1c transporter-expressing membranes

Sample answers from the record:
Cn1cnc(S(=O)(=O)N2C[C@@H](Nc3cccc(C(F)(F)F)c3)[C@H](C3CCCOC3)C2)c1 (relative stereo) [Example 782]; ≤ 1 µM
Cn1cnc(S(=O)(=O)N2C[C@H](Nc3cc(F)ccn3)[C@@H](c3ccc(F)cc3)C2)c1 [Example 736]; ≤ 1 µM
O=c1[nH]c2ccc(S(=O)(=O)N3CC(Nc4ccc(F)c(F)c4)C(c4ccccc4)C3)cc2[nH]c1=O (stereo not shown) [Example 501]; ≤ 10 µM
Cn1cnc(S(=O)(=O)N2C[C@@H](Nc3cncc(C(F)(F)F)c3)[C@H](c3cccc(F)c3)C2)c1 (relative stereo) [Example 196]; ≤ 10 µM
Cn1cnc(S(=O)(=O)N2C[C@@H](NCc3cccc(C#N)c3)[C@H](c3ccc(F)cc3)C2)c1 (relative stereo) [Example 152]; ≤ 1 µM
O=S(=O)(c1ccc2c(c1)CCO2)N1CC(Nc2ccc(F)c(F)c2)C(c2ccccc2)C1 (stereo not shown) [Example 519]; > 10 µM

## Input Lab note: need Ki with human GlyT1c transporter (Homo sapiens, UniProt P48067) for entry Cn1cnc(S(=O)(=O)N2C[C@@H](Nc3cc(F)ccc3F)[C@H](c3ccccc3)C2)c1 (relative stereo) [Example 232] , please look it up.
## Output ≤ 10 µM

###

STUDY TARGET: human GlyT1c transporter (Homo sapiens, UniProt P48067)
Construct: expressed in transfected cells; host or cells: CHO cells (recombinant; line hGlyT1c_5_CHO is named for the uptake assay)
ASSAY NAME: Radioligand binding assay using recombinant CHO cell membranes expressing human GlyT1
ASSAY CONDITIONS: radioligand binding to human GlyT1c transporter-expressing membranes
pKi: −log10 of the molar value.
REPORTED METRIC: pKi

Sample answers from the record:
COC(=O)CCCC(=O)N[C@H]1CN(S(=O)(=O)c2cn(C)cn2)C[C@@H]1c1ccc(F)cc1; ≥ 5.00
CC(C)OCCNC[C@@H]1CN(S(=O)(=O)c2cn(C)cn2)C[C@H]1c1ccc(F)cc1 (relative stereo); ≥ 5.00
Cc1c(S(=O)(=O)N2CC(Nc3ccc(F)c(F)c3)C(c3ccccc3)C2)cnn1C (stereo not drawn); ≥ 5.00
Cn1cnc(S(=O)(=O)N2C[C@@H](Nc3ccc(F)cc3F)[C@H](c3ccccc3)C2)c1 (relative stereo); ≥ 5.00
Cn1cnc(S(=O)(=O)N2C[C@@H](CNCc3ccccc3)[C@H](c3ccc(F)cc3)C2)c1 (relative stereo); ≥ 6.00
CCc1cc(N[C@H]2CN(S(=O)(=O)c3cn(C)cn3)C[C@@H]2c2ccc(F)cc2)ncn1; ≥ 6.00
Cc1cccc(N[C@@H]2CN(S(=O)(=O)c3cn(C)cn3)C[C@H]2c2ccccc2)c1 (relative stereo); ≥ 7.00
Cn1cnc(S(=O)(=O)N2C[C@@H](N3Cc4ccc(Cl)cc4C3=O)[C@H](c3ccccn3)C2)c1 (relative stereo); ≥ 5.00
Cn1cnc(S(=O)(=O)N2C[C@H](NCC3(C(F)(F)F)CC3)[C@@H](c3ccc(F)cc3)C2)c1; ≥ 6.00
Cn1cnc(S(=O)(=O)N2C[C@H](Nc3cc(Cl)ncn3)[C@@H](c3ccccc3)C2)c1; ≥ 7.00

Kindly review the next compound as well.
## Input Name the reported pKi value associated with the compound Cn1cnc(S(=O)(=O)N2C[C@@H](Nc3ccc(F)c(F)c3F)[C@H](c3ccc(F)cc3)C2)c1 (relative stereo)
## Output ≥ 6.00

###

STUDY TARGET: human GlyT1c transporter (Homo sapiens, UniProt P48067)
Construct: expressed in transfected cells; host or cells: CHO cells (recombinant; line hGlyT1c_5_CHO is named for the uptake assay)
ASSAY NAME: Radioligand binding assay using recombinant CHO cell membranes expressing human GlyT1
ASSAY CONDITIONS: radioligand binding to human GlyT1c transporter-expressing membranes
pKi: −log10 of the molar value.
In this section, each of the compounds is paired with its reported pKi.

Sample answers from the record:
Cn1cnc(S(=O)(=O)N2C[C@@H](Nc3ccc(Cl)cc3)[C@H](c3ccccc3)C2)c1 (relative stereo) [Example 75]; ≥ 6.00
Cn1cnc(S(=O)(=O)N2C[C@@H](COc3ccc(Cl)cc3Cl)[C@H](c3ccc(F)cc3)C2)c1 (relative stereo) [Example 246]; ≥ 7.00
Cn1cnc(S(=O)(=O)N2C[C@@H](Nc3cccc(OCC(F)(F)F)c3)[C@H](c3ncccc3F)C2)c1 (relative stereo) [Example 800]; ≥ 8.00
Cn1cnc(S(=O)(=O)N2C[C@@H](NC(=O)c3cccc(F)c3)[C@H](c3ccccc3)C2)c1 (relative stereo) [Example 18]; ≥ 5.00
Cn1cnc(S(=O)(=O)N2C[C@@H](Nc3ccccc3F)[C@H](c3ccc(F)cc3)C2)c1 (relative stereo) [Example 90]; ≥ 6.00

## Input Name the reported pKi value associated with the compound CC1CCN(S(=O)(=O)N2CC(Nc3ccc(F)c(F)c3)C(c3ccccc3)C2)CC1 (stereo not shown) [Example 493]
## Output ≥ 5.00

## Input Also, Cn1cnc(S(=O)(=O)N2C[C@@H](Nc3cc(C#N)ccc3Cl)[C@H](c3ccccc3)C2)c1 (relative stereo) [Example 81] please.
## Output ≥ 5.00

###

STUDY TARGET: human GlyT1c transporter (Homo sapiens)
Construct: expressed in transfected cells; host or cells: CHO cells (recombinant; line hGlyT1c_5_CHO is named for the uptake assay)
ASSAY NAME: Radioligand binding assay using recombinant CHO cell membranes expressing human GlyT1
ASSAY CONDITIONS: radioligand binding to human GlyT1c transporter-expressing membranes
pKi: −log10 of the molar value.
In this section, each of the molecules is paired with its reported pKi.

Sample answers from the record:
Cn1cnc(S(=O)(=O)N2C[C@@H](C(=O)Nc3ccc(C(F)(F)F)cc3)[C@H](c3ccc(F)cc3)C2)c1 (relative stereo); ≥ 6.00
Cn1cnc(S(=O)(=O)N2C[C@@H](Nc3cc(F)cc(Cl)c3)[C@H](c3ccccc3)C2)c1 (relative stereo); ≥ 5.00
Cn1cnc(S(=O)(=O)N2C[C@H](Nc3ccc4c(c3)C(C)(C)CCO4)[C@@H](c3ccc(F)cc3)C2)c1; ≥ 6.00
Cn1cnc(S(=O)(=O)N2C[C@H](NCCc3cccc(Cl)c3)[C@@H](c3ccccc3)C2)c1; ≥ 7.00
Cn1cnc(S(=O)(=O)N2C[C@H](Nc3cc(OC4CCCC4)ncn3)[C@@H](c3ccc(F)cc3)C2)c1; ≥ 7.00
CCC(CCCN[C@H]1CN(S(=O)(=O)c2cn(C)cn2)C[C@@H]1c1ccccc1)OC (stereo partly drawn); ≥ 5.00
Cn1cnc(S(=O)(=O)N2C[C@H](NCc3scnc3Cl)[C@@H](c3ccccc3)C2)c1; ≥ 5.00
Cn1cnc(S(=O)(=O)N2C[C@H](Nc3ccc(F)c(-c4ccncc4)c3)[C@@H](c3ccc(F)cc3)C2)c1; ≥ 8.00
Cn1cnc(S(=O)(=O)N2C[C@@H](COc3cccc(F)c3)[C@H](c3ccc(F)cc3)C2)c1 (relative stereo); ≥ 7.00
CCCCCN[C@@H]1CN(S(=O)(=O)c2cn(C)cn2)C[C@H]1c1ncccc1F (relative stereo); ≥ 6.00

Kindly review the next molecule as well.
## Input Lab note: need pKi with human GlyT1c transporter (Homo sapiens) for entry Cn1cnc(S(=O)(=O)N2C[C@@H](Nc3cccc(F)c3F)[C@H](c3ccc(F)cc3)C2)c1 (relative stereo) , please look it up.
## Output ≥ 6.00

###

In this section, each of the compounds is paired with its reported pKi.
STUDY TARGET: human GlyT1c transporter (Homo sapiens, UniProt P48067)
Construct: expressed in transfected cells; host or cells: CHO cells (recombinant; line hGlyT1c_5_CHO is named for the uptake assay)
ASSAY NAME: Radioligand binding assay using recombinant CHO cell membranes expressing human GlyT1
ASSAY CONDITIONS: radioligand binding to human GlyT1c transporter-expressing membranes
pKi: −log10 of the molar value.

CCOc1cc(N[C@H]2CN(S(=O)(=O)c3cn(C)cn3)C[C@@H]2c2ccc(F)cc2)ncn1; ≥ 6.00

## Input Name the reported pKi value associated with the compound O=S(=O)(c1ccc(N2CCOCC2)nc1)N1CC(Nc2ccc(F)c(F)c2)C(c2ccccc2)C1 (stereo not shown)
## Output ≥ 5.00

## Input Also, O=S(=O)(c1cccc2cnccc12)N1CC(Nc2ccc(F)c(F)c2)C(c2ccccc2)C1 (stereo not shown) please.
## Output ≥ 5.00

###

STUDY TARGET: human GlyT1c transporter (Homo sapiens, UniProt P48067)
Construct: expressed in transfected cells; host or cells: CHO cells (recombinant; line hGlyT1c_5_CHO is named for the uptake assay)
Sequence (P48067 1-706): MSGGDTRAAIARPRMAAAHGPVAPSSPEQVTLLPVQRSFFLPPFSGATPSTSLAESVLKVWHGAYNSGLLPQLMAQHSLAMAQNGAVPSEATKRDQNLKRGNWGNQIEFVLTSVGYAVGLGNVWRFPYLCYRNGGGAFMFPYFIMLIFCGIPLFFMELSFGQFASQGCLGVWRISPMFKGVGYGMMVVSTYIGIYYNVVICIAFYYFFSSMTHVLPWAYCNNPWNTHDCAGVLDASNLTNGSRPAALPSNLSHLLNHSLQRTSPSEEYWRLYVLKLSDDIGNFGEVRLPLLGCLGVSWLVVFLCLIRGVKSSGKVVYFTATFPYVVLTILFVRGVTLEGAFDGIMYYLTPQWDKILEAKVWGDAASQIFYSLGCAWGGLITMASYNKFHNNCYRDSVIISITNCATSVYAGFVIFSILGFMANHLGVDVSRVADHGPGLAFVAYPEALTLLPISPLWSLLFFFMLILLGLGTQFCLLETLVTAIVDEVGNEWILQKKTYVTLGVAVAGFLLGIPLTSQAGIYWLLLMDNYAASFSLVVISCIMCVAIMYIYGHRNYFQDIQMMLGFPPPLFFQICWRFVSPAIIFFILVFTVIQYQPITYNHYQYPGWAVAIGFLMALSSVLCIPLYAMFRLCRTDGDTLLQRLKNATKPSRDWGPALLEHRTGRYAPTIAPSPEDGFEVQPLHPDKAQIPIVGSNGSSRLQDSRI
ASSAY NAME: Radioligand binding assay using recombinant CHO cell membranes expressing human GlyT1
ASSAY CONDITIONS: radioligand binding to human GlyT1c transporter-expressing membranes
REPORTED METRIC: Ki

Cn1cnc(S(=O)(=O)N2C[C@@H](NC(=O)c3ccc(F)cc3Cl)[C@H](c3ccccc3)C2)c1 (relative stereo); ≤ 1000 nM
Cn1cnc(S(=O)(=O)N2C[C@@H](Nc3ccc(F)c(Cl)c3)[C@H](c3ccc(F)cc3)C2)c1 (relative stereo) [Example 160]; ≤ 10 nM
Cn1cnc(S(=O)(=O)N2C[C@@H](Nc3ccc(F)c(Cl)c3)[C@H](c3ncccc3F)C2)c1 (relative stereo); ≤ 100 nM

## Input Name the reported Ki value associated with the compound Cn1cnc(S(=O)(=O)N2CC(Oc3ccccc3)C(c3ccccc3)C2)c1 (stereo not shown)
## Output ≤ 10000 nM
